Test system: CCRF-CEM leukemia
experiment summary: NCI-60 one-dose screen, 48 h (100 = growth as untreated, 0 = no growth, -100 = all killed)
assay context: 10 µM unless noted
Protocol: Growth inhibition of the CCRF-CEM human tumor cell line is measured as a screen for anti-cancer activity. Cells are grown in 96 well plates and exposed to the test compound for 48 hours. Compounds are tested at a single concentration, which is 10^-5 M for most compounds. The reported endpoint is percent growth (GI% or GIPRCNT), where numbers from 0 - 100% represent growth inhibition, and numbers from -100% - 0 represent cell death. For example, a value of 40 represents 60% growth inhibition. […]
About 83,000 compounds went through this panel and 20% of them were active in at least one assay; those are over-represented in the sample as a whole.
measured attribute: growth (%)
Number only, in %; omit the unit.

Examples with answers:
*Q* Please report the recorded growth for CCN1CCN(c2nc(C)cc(N(CCCNc3ccnc4cc(Cl)ccc34)Cc3ccco3)n2)CC1 .
*A* 42

*Q* Please report the recorded growth for CC1(n2nnnc2N2CCCN(c3ncccc3N)CC2)CCC1 .
*A* 103

Here is another compound to look at.
*Q* Please report the recorded growth for CCC1C(=O)COC1=O (stereo not drawn) .
*A* 85.4
